system: Alternaria solani; test: Example M: in vivo test on Alternaria solani (leaf blotch disease/tomato/protective); settings: 168 h, tomato, protective, 500 ppm active substance, assessed 7 days after inoculation, read-out: % Wirkungsgrad (activity level)
# Lookup of reported pest or weed control at 500 ppm keyed by entry
Report as a plain number; the unit % is understood.

Requested read-out: pest or weed control at 500 ppm. Entry: CCOC(=O)Nc1cc(-c2cn(CC(F)F)nc2-c2ccc(F)cc2)ccn1 94

Requested read-out: pest or weed control at 500 ppm. Entry: COCC(=O)Nc1cc(-c2cn(C)nc2-c2ccc(F)cc2)ccn1 100

Requested read-out: pest or weed control at 500 ppm. Entry: CC(=O)Nc1cc(-c2cn(C(C)C)nc2-c2ccc(F)cc2)ccn1 95

Requested read-out: pest or weed control at 500 ppm. Entry: C#CCNc1nccc(-c2cn(CC(C)C)nc2-c2ccc(F)cc2)n1 100

Requested read-out: pest or weed control at 500 ppm. Entry: CC(C)n1cc(-c2ccnc(NC(=O)C(C)(C)O)c2)c(-c2ccc(F)cc2)n1 95

Requested read-out: pest or weed control at 500 ppm. Entry: CC(C)On1cc(-c2ccnc(NC(=O)C(C)C)c2)c(-c2ccc(F)cc2)n1 94

Requested read-out: pest or weed control at 500 ppm. Entry: CCC(=O)Nc1cc(-c2c(-c3ccc(F)cc3O)nn(C)c2OC(F)F)ccn1 100

Requested read-out: pest or weed control at 500 ppm. Entry: COCC(=O)Nc1cc(-c2c(-c3ccc(Cl)cc3F)nn(C)c2SC)ccn1 93

Requested read-out: pest or weed control at 500 ppm. Entry: CC(C)Nc1nccc(-c2cn(CCC#N)nc2-c2ccc(F)cc2)n1 80

meta.source: patent US20110183978A1
